All figures here come from patent US20260116921A1.

tested-on: T1, IL-23R (human, UniProt Q5VWK5 24-629)
T1 sequence (looked up): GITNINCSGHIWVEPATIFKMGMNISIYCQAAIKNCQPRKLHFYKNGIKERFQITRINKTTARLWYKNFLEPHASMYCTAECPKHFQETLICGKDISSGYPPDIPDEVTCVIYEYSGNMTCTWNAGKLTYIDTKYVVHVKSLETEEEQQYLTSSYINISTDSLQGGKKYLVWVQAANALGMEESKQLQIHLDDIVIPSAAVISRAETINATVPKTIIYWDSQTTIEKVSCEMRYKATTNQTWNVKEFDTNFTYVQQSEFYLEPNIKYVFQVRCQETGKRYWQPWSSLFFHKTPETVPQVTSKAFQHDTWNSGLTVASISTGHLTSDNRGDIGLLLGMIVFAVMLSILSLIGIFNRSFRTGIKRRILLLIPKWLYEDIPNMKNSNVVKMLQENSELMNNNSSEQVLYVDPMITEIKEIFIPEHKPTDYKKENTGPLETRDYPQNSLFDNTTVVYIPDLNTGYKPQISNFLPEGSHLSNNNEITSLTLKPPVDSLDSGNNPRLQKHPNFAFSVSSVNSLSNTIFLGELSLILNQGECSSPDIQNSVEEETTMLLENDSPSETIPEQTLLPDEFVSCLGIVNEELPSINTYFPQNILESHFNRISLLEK
test-name: cell-based or functional assay
Bridge positions count the residues as written; N and C are the ends. Square brackets hold non-standard residues; d marks the D form. Trp(5-OH) = N[C@@H](Cc1c[nH]c2ccc(O)cc12)C(=O)O; AEF = NCCOc1ccc(C[C@H](N)C(=O)O)cc1; αMeL = CC(C)C[C@](C)(N)C(=O)O; Pen = CC(C)(S)[C@H](N)C(=O)O
measured-attribute: pStat3 HTRF (nM) IC50

binder	reading
XNTXQXXXXKNN (Ac-[Pen]-NT-[W(5-OMe)]-Gln-[Pen]-[Phe[4-(2-aminoethoxy)]-[2-Nal]-[α-MeLeu]-[Lys(Ac)]-NN-NH2; Pen-Pen disulfide) [SEQ ID NO: 9]	> 100 nM

# query: pStat3 HTRF (nM) IC50 of entry XNTXQXXXXKNN (Ac-[Pen]-NT-[W(5-OH)]-Gln-[Pen]-[Phe[4-(2-aminoethoxy)]-[2-Nal]-[α-MeLeu]-[Lys(Ac)]-NN-NH2; Pen-Pen disulfide) [SEQ ID NO: 10]
> 100 nM

Name the recorded pStat3 HTRF (nM) IC50 for XNTXQXXXXKNN (Ac-[Pen]-NT-[W(7-Me)]-Gln-[Pen]-[Phe[4-(2-aminoethoxy)]-[2-Nal]-[α-MeLeu]-[Lys(Ac)]-NN-NH2; Pen-Pen disulfide) [SEQ ID NO: 6] .
< 1 nM

pStat3 HTRF (nM) IC50 lookup needed for Ac-[Pen]NTWQ[Pen][AEF][Trp(5-OH)][αMeL]K(Ac)NN-NH2 (disulfide 1-6; SMILES CC(=O)NCCCC[C@H](NC(=O)[C@](C)(CC(C)C)NC(=O)[C@H](Cc1c[nH]c2ccc(O)cc12)NC(=O)[C@H](Cc1ccc(OCCN)cc1)NC(=O)[C@H]1NC(=O)[C@H](CCC(N)=O)NC(=O)[C@H](Cc2c[nH]c3ccccc23)NC(=O)[C@H]([C@@H](C)O)NC(=O)[C@H](CC(N)=O)NC(=O)[C@@H](NC(C)=O)C(C)(C)SSC1(C)C)C(=O)N[C@@H](CC(N)=O)C(=O)N[C@@H](CC(N)=O)C(N)=O) [SEQ ID NO: 21] , thanks.
> 100 nM

Would you kindly share the measured pStat3 HTRF (nM) IC50 for XNTXQXXXXKNN (Ac-[Pen]-NT-[W(5-Br)]-Gln-[Pen]-[Phe[4-(2-aminoethoxy)]-[2-Nal]-[α-MeLeu]-[Lys(Ac)]-NN-NH2; Pen-Pen disulfide) [SEQ ID NO: 11] ?
> 100 nM
